# Tested on: MDA-MB-231 breast
# assay info: NCI tumour cell line growth inhibition, 48 h; in the data active = GI50 below about 0.43 µM; inactive = the rest
Returns: one label drawn from class 1 for active, class 0 for inactive

Problem: What did this assay record as the result for COc1cc(-c2nc3sccn3c2-c2ccnc(NCCNS(=O)(=O)c3ccc(F)cc3)n2)ccc1F ?
Result: class 0

Problem: What did this assay record as the result for c1ccc(-c2n(Cc3ccc4ccccc4n3)cc[n+]2Cc2ccc3ccccc3c2)cc1 ?
Result: class 0

Problem: What did this assay record as the result for COc1c2ccccc2c(OC)c2[nH]c(=O)ccc12 ?
Result: class 0

Problem: What did this assay record as the result for Cc1nnc2ccnn2c1C ?
Result: class 0

Problem: What did this assay record as the result for Cn1cc(-c2cc3c(N4CCN(c5ncc([C@@](C)(N)c6ccc(F)cc6)cn5)CC4)ncnn3c2)cn1 ?
Result: class 0

Problem: What did this assay record as the result for COc1ccc(CN2C(=O)C(Cl)=C(Nc3cccc(C(F)(F)F)c3)C2=O)cc1 ?
Result: class 0

Cited source: PubChem BioAssay (NCI)
